Item-by-item account of pIC50
- MEASURED_TARGET: human autotaxin (Homo sapiens (Human), UniProt Q13822)
pIC50: −log10 of the molar value.

O=C1C2Cc3c(n(Cc4ccc(F)cc4)c4ccccc34)CN2C(=O)N1CCN1CCNCC1 (centres unmarked) = > 6.30

# context switch: different compound, same pIC50
Incoming: Print human autotaxin (Homo sapiens (Human), UniProt Q13822) pIC50 for CCn1cc(-n2c(Cl)c(Sc3cccc(C(=O)O)c3F)c3ccc(Cl)c(F)c32)cn1 .
Outgoing: > 6.30

----------
- MEASURED_TARGET: ENPP6 (Homo sapiens (Human))
- Sequence (Q6UWR7 23-440, species assumed): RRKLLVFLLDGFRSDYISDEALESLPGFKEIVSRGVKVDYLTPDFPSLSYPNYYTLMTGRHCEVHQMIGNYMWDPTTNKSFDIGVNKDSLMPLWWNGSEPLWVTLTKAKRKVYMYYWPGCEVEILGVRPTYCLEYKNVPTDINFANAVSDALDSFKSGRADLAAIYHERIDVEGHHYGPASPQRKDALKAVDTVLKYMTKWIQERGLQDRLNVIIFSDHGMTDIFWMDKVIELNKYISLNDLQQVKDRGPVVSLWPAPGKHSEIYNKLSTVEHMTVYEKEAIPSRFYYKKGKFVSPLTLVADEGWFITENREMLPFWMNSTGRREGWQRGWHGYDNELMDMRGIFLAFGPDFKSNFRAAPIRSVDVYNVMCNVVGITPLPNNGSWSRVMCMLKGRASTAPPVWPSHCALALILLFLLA
MEASUREMENT_TYPE: IC50

Incoming: Give me measured IC50, please, for this molecule: CCCn1cc(-n2c(Cl)c(Sc3cccc(C(=O)O)c3F)c3ccc(Cl)c(F)c32)cn1
Outgoing: > 10 µM

Entry source: patent US12458627B2
